target.or.test.system: Histone deacetylase 3 (Homo sapiens)
Sequence (O15379 whole entry): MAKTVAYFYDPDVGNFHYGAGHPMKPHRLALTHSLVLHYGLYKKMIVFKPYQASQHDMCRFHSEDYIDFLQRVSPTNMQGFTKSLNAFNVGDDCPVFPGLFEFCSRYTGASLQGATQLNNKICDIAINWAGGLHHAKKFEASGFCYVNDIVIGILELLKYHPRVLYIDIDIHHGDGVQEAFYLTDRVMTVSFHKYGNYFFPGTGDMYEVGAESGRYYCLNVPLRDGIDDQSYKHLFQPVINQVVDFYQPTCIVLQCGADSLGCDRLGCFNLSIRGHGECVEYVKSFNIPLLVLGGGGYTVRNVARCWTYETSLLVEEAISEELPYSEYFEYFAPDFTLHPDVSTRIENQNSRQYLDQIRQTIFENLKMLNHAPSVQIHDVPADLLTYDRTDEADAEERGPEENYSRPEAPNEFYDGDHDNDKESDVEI
Mark true (1) for IC50 under 300 nM, false (0) if at or over.

Consider the worked cases shown below.
>>> qualitative_label("CC(C)C(C(=O)Nc1ccc(C(=O)Nc2ccccc2N)nc1)c1ccccc1 (stereo unspecified)")
"false (0)"
>>> qualitative_label("O=C(Cc1ccccc1)Nc1ccc(C(=O)NO)nc1")
"false (0)"
>>> qualitative_label("O=C(NO)c1ccc(NC(=O)C(Cc2ccccc2)c2ccccc2)cn1 (stereo unspecified)")
"true (1)"
>>> qualitative_label("Nc1ccccc1NC(=O)/C=C/c1ccc(NC(=O)Cc2cccc3ccccc23)cn1")
"true (1)"
>>> qualitative_label("O=C(/C=C/c1ccc(NC(=O)Cc2cccc3ccccc23)cn1)NO")
"true (1)"

stdin: # check: IC50 < 300 nM for CC(C)C(C(=O)Nc1ccc(C(=O)NO)nc1)c1ccccc1 (stereo unspecified)
stdout: false (0)

* * *

System: OCI-AML2
experiment: Antiproliferative activity against human OCI-AML2 cells incubated for 48 hrs
Assay type: functional, cell-based
condition.details: OCI-AML2, 48 h
reported.property: pIC50
pIC50 here: minus log base 10 of the concentration, concentration in moles per litre.

These solved cases illustrate the format of a correct answer.
>>> recorded_measurement("Nc1ccccc1NC(=O)c1ccc(CNc2nccc(-c3cccnc3)n2)cc1 [MOCETINOSTAT]")
5.81
>>> recorded_measurement("Nc1ccccc1NC(=O)c1ccc(NC(=O)Cc2ccc3ccccc3c2)cn1")
5.82

stdin: Quick check: pIC50 of "O=C(/C=C/c1ccc(NC(=O)Cc2cccc3ccccc23)cn1)NO" ?
stdout: 6.42

* * *

target.or.test.system: UniProt:Q13547
Sequence (Q13547 whole entry): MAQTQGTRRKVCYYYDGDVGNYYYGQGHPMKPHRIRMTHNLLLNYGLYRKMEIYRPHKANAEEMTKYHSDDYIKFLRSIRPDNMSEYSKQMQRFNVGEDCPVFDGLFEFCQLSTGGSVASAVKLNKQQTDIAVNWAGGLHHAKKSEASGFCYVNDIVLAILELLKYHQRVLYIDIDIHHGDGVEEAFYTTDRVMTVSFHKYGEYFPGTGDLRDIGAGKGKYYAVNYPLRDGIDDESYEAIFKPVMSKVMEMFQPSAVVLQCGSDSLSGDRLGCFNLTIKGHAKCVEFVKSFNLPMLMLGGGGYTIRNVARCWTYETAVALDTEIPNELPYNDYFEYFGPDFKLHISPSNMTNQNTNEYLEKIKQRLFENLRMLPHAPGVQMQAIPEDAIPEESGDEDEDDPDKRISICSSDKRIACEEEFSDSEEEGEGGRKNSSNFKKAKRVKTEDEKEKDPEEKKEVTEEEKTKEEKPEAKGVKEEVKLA
reported.property: pIC50
pIC50 here: minus log base 10 of the concentration, concentration in moles per litre.

>>> recorded_measurement("Nc1ccccc1NC(=O)c1ccc(NC(=O)Cc2cccc3ccccc23)cn1")
6.89
>>> recorded_measurement("Nc1ccccc1NC(=O)c1ccc(NC(=O)C(Cc2ccccc2)c2ccccc2)cn1 (configuration not stated)")
6.45
>>> recorded_measurement("O=C(/C=C/c1ccc(NC(=O)Cc2cccc3ccccc23)cn1)NO")
7.01

stdin: Kindly state the measured pIC50 obtained for CC(C)C(C(=O)Nc1ccc(C(=O)NO)nc1)c1ccccc1 (configuration not stated) with UniProt:Q13547.
stdout: 6.00

stdin: Kindly state the measured pIC50 obtained for CCC(C(=O)Nc1ccc(/C=C/C(=O)Nc2ccccc2N)nc1)c1ccccc1 (configuration not stated) with UniProt:Q13547.
stdout: 6.84

stdin: Kindly state the measured pIC50 obtained for "O=C(Cc1ccc2ccccc2c1)Nc1ccc(C(=O)NO)nc1" with UniProt:Q13547.
stdout: 4.03

stdin: Kindly state the measured pIC50 obtained for CCC(C(=O)Nc1ccc(C(=O)Nc2ccccc2N)nc1)c1ccccc1 (configuration not stated) with UniProt:Q13547.
stdout: 6.49

stdin: Kindly state the measured pIC50 obtained for "Nc1ccccc1NC(=O)/C=C/c1ccc(NC(=O)Cc2cccc3ccccc23)cn1" with UniProt:Q13547.
stdout: 7.20

stdin: Kindly state the measured pIC50 obtained for CCC(C(=O)Nc1ccc(/C=C/C(=O)NO)nc1)c1ccccc1 (configuration not stated) with UniProt:Q13547.
stdout: 7.11

stdin: Kindly state the measured pIC50 obtained for "O=C(/C=C/c1ccc(NC(=O)Cc2ccccc2)cn1)NO" with UniProt:Q13547.
stdout: 7.17

stdin: Kindly state the measured pIC50 obtained for "Nc1ccccc1NC(=O)/C=C/c1ccc(NC(=O)Cc2ccc3ccccc3c2)cn1" with UniProt:Q13547.
stdout: 6.69

stdin: Kindly state the measured pIC50 obtained for CC(C)C(C(=O)Nc1ccc(/C=C/C(=O)NO)nc1)c1ccccc1 (configuration not stated) with UniProt:Q13547.
stdout: 7.09
